Every entry's value here was drawn from PubChem BioAssay (NCATS).

# Tested on: CP191
# ASSAY DETAILS: qHTS profiling for inhibitors of Plasmodium falciparum proliferation (AID 504749); further: nearly all actives have a fitted effect of over 60% in size
# CONDITION LABEL: P. falciparum in erythrocytes, SYBR Green DNA, 72 h; series mostly up to 28.7 µM
Results filed as inconclusive are left out. Calls of active or inactive are those of the source. The call rests on the fitted dose curve; in most records, active means well fitted inhibition curve with a large enough effect; inconclusive means small, poorly fitted or top-dose-only effect; inactive means flat fitted curve, though single readings scatter.
Can you answer with just one of these options? active, inactive

// known answers, use as guide
| COMPOUND | CLASS ASSIGNMENT |
| --- | --- |
| COc1c(C)c2c(c(O)c1C/C=C(\C)CCC(=O)O)C(=O)OC2 | active |
| Cc1c(C(C)C)c(=O)n(-c2ccccc2)n1C | inactive |
| Oc1ccc(Cl)cc1Sc1cc(Cl)ccc1O | inactive |
| CN(C(=O)CN(CCO)CC(=O)N(C)C(C)(C)Cc1ccccc1)C(C)(C)Cc1ccccc1 | inactive |
| COc1cc2c(cc1OC)C(C(C(=O)N(CCc1ccc(OC)c(OC)c1OC)CCc1ccc(OC)c(OC)c1OC)c1ccccc1)=NCC2 (configuration not stated) | active |

Ask: Identify the outcome logged in this assay for the compound shown: `CCOC(=O)c1cccc(N)c1`
Result: inactive

Ask: Identify the outcome logged in this assay for the compound shown: `CC(=O)OCC(=O)[C@@]1(OC(C)=O)[C@@H](C)C[C@H]2[C@@H]3C[C@H](F)C4=CC(=O)C=C[C@]4(C)[C@@]3(F)[C@@H](O)C[C@@]21C`
Result: inactive

Ask: Identify the outcome logged in this assay for the compound shown: `CCCCOc1ccc(C(=O)CCN2CCCCC2)cc1`
Result: inactive

Ask: Identify the outcome logged in this assay for the compound shown: `Cc1cc(O)c(C(C)C)cc1Cl`
Result: inactive

Ask: Identify the outcome logged in this assay for the compound shown: `CCN(CC)C(=O)N1CCN(C)CC1`
Result: inactive

###

# ASSAY DETAILS: qHTS assay to identify small molecule inhibitors of chordoma cells - UCH-2 (AID 1259356); further: on the % scale 0 is the no-effect control and ±100 the full control effect
# CONDITION LABEL: UCH-2 chordoma viability, CellTiter-Glo ATP luminescence, 48 h; series mostly up to 46.1 µM
Inconclusive results are not listed. The source made the active and inactive calls. Calls follow the shape of the dose curve; as a rule, active = well fitted cell-killing curve with a large enough effect; inconclusive = small, poorly fitted or top-dose-only effect; inactive = flat fitted curve, though single readings scatter.
EXPERIMENTAL ENDPOINT: outcome

Examples with their reported outcome follow.
| COMPOUND | outcome |
| --- | --- |
| Nc1nc2ncc(CNc3ccc(C(=O)N[C@@H](CCC(=O)O)C(=O)O)cc3)nc2c(=O)[nH]1 | inactive |
| Cc1ccc(C(=O)C(C)CN2CCCCC2)cc1 (centres undefined) | inactive |
| CCCCCCCCCCCCCCNCCO | inactive |
| COC(=O)[C@@H]1CC2=CC(=O)CC[C@]2(C)[C@@]23O[C@@H]2C[C@@]2(C)[C@@H](CC[C@@]24CCC(=O)O4)[C@H]13 | inactive |
| NCCC(O)(P(=O)(O)O)P(=O)(O)O | inactive |

I'm hoping you can list outcome for every compound here, please.
1. Cc1ccc(O)c2ncccc12
2. CC[N+](CC)(CCNC(=O)C(=O)NCC[N+](CC)(CC)Cc1ccccc1Cl)Cc1ccccc1Cl
3. COc1c(C)c2c(c(O)c1C/C=C(\C)CCC(=O)O)C(=O)OC2
4. CCCCCCCCCCCCCCCCOP(=O)([O-])OCC[N+](C)(C)C

Result:
1: inactive; 2: inactive; 3: inactive; 4: inactive

###

# ASSAY DETAILS: Primary qHTS for inhibitors of nuclear receptor binding SET domain protein 2 (NSD2) in an RCH-ACV wild type WT cells (2C) (AID 1645877); further: nearly all actives have a fitted effect of over 70% in size
# CONDITION LABEL: RCH-ACV (leukaemia line) NSD2 WT (2C) viability, CellTiter-Glo, 72 h; series mostly up to 44.9 µM
Results filed as inconclusive are left out. Activity calls are given as the source filed them. Calls follow the shape of the dose curve; as a rule, active = well fitted inhibition curve with a large enough effect; inconclusive = small, poorly fitted or top-dose-only effect; inactive = no such curve, though single readings can be large or run the other way.
Can you answer with just one of these options? active, inactive

// known answers, use as guide
| COMPOUND | CLASS ASSIGNMENT |
| --- | --- |
| Cc1cccn2c(=O)c(-c3nnn[nH]3)cnc12 | inactive |
| NC[C@H]1O[C@H](O[C@H]2[C@H](O)[C@@H](O[C@H]3O[C@H](CO)[C@@H](O)[C@H](N)[C@H]3O)[C@H](N)C[C@@H]2N)[C@H](N)[C@@H](O)[C@@H]1O | inactive |
| CC1=C(C(=O)OC(C)C)C(c2cccc([N+](=O)[O-])c2)C(C(=O)OC2CN(C(c3ccccc3)c3ccccc3)C2)=C(N)N1 (centres undefined) | inactive |
| CN=C(NC#N)Nc1ccc(C2=NNC(=O)CC2C)cc1 (centres undefined) | inactive |
| Cc1c(C(C)C)c(=O)n(-c2ccccc2)n1C | inactive |

We now examine a further compound.
Ask: Identify the outcome logged in this assay for the compound shown: `CCCCCCCCCCCCCCCC[N+](C)(C)CC`
Result: active

###

# ASSAYED SYSTEM: Glucocorticoid receptor (Homo sapiens) (UniProt P04150)
# Sequence (P04150 whole entry, looked up): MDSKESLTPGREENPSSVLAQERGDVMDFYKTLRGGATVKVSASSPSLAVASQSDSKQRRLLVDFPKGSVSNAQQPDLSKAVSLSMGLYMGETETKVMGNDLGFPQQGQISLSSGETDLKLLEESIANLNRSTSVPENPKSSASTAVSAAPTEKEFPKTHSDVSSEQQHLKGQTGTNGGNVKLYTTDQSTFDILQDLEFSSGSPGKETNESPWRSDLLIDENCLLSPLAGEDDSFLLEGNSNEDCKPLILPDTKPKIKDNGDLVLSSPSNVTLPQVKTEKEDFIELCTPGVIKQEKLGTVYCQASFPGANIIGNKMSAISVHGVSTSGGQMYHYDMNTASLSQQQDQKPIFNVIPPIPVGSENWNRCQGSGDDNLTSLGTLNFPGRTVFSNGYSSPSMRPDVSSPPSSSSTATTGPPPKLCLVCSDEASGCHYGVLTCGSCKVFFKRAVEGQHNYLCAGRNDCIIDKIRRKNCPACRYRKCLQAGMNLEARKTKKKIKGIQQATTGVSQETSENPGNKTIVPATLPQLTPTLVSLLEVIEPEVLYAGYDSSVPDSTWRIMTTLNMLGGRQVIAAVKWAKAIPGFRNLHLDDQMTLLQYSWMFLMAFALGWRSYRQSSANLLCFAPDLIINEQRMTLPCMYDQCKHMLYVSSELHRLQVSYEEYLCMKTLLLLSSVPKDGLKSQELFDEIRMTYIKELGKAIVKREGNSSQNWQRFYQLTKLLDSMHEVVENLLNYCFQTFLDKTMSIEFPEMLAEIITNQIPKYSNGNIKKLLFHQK
# ASSAY DETAILS: GR-GFP Redistribution (AID 450)
# CONDITION LABEL: U2OS GR-GFP nuclear translocation, laser cytometry, 2 h
# Experimental: NIH Molecular Libraries Screening Centers Network [MLSCN] NIH Chemical Genomics Center [NCGC] […] GR-GFP U2OS cells were maintained in DMEM with Glutamax and high glucose, 1% v/v penicillin-streptomycin, and 0.5 mg/mL Geneticin. […] The plates were read by the Acumen Explorer using a 1 x 8 um scan of the whole well area. PI fluorescence triggered the collection of PI and GFP signals. […]
Activity calls are given as the source filed them.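 The calls were made as follows: active = compounds whose dose series gives a full or clear partial fitted curve of increased nuclear translocation; inconclusive = weak partial curve or effect only at the top dose; inactive = no dose-dependent translocation response.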
Can you answer with just one of these options? yes (1) (active), no (0) (inactive)

// known answers, use as guide
| MOL | ASSAYED SYSTEM | CLASS ASSIGNMENT |
| --- | --- | --- |
| O=C(CCCN1CCC(O)(c2ccc(Br)cc2)CC1)c1ccc(F)cc1 | Glucocorticoid receptor (Homo sapiens) (UniProt P04150) | no (0) |
| COc1cccc2c1C(=O)c1c(O)c3c(c(O)c1C2=O)C[C@@](O)(C(=O)CO)C[C@@H]3O[C@H]1C[C@H](N)[C@H](O)[C@H](C)O1 | Glucocorticoid receptor (Homo sapiens) (UniProt P04150) | no (0) |
| CN1CCC(=C2c3ccccc3Sc3ccccc32)CC1 | Glucocorticoid receptor (Homo sapiens) (UniProt P04150) | no (0) |
| CCCCC(=O)O[C@]1(C(=O)CO)CC[C@H]2[C@@H]3CCC4=CC(=O)CC[C@]4(C)[C@H]3[C@@H](O)C[C@@]21C | Glucocorticoid receptor (Homo sapiens) (UniProt P04150) | yes (1) |
| C[C@@H]1C[C@H]2[C@@H]3CCC4=CC(=O)C=C[C@]4(C)[C@@]3(F)[C@@H](O)C[C@]2(C)[C@H]1C(=O)CO | Glucocorticoid receptor (Homo sapiens) (UniProt P04150) | no (0) |

Ask: Identify the outcome logged in this assay for the compound shown: `C[C@H](O)C(=O)Nc1c(I)c(C(=O)NC(CO)CO)c(I)c(C(=O)NC(CO)CO)c1I`
Result: no (0)

Ask: Identify the outcome logged in this assay for the compound shown: `CCCCCCCCCCCCCCCC[N+](C)(C)CCN(Cc1ccc(OC)cc1)c1ncccn1`
Result: no (0)

Ask: Identify the outcome logged in this assay for the compound shown: `CN(C)CCCOc1nn(Cc2ccccc2)c2ccccc12`
Result: no (0)

Ask: Identify the outcome logged in this assay for the compound shown: `O=C(O)c1cc2cc(Cc3cccnc3)ccc2o1`
Result: no (0)

###

# ASSAY DETAILS: qHTS of pediatric cancer cell lines to identify multiple opportunities for drug repurposing: Primary screen for BT-37 cells (AID 1347094)
# CONDITION LABEL: BT-37 viability, CellTiter-Glo luminescence, 48 h; series mostly up to 57.3 µM
Results filed as inconclusive are left out. Active and inactive are the calls of the source. Calls follow the shape of the dose curve; as a rule, active = well fitted cell-killing curve with a large enough effect; inconclusive = small, poorly fitted or top-dose-only effect; inactive = flat fitted curve, though single readings scatter.
Can you answer with just one of these options? 1 (yes) (active), 0 (no) (inactive)

| MOL | CLASS ASSIGNMENT |
| --- | --- |
| NCCCC[C@H](N[C@@H](CCc1ccccc1)C(=O)O)C(=O)N1CCC[C@H]1C(=O)O | 0 (no) |
| NC(CO)(CO)CO | 0 (no) |
| CCCCCCC[N+](CC)(CC)CCCCc1ccc(Cl)cc1 | 1 (yes) |
| OC[C@H]1O[C@H](O[C@]2(CCl)O[C@H](CCl)[C@@H](O)[C@@H]2O)[C@H](O)[C@@H](O)[C@H]1Cl | 0 (no) |
| CCCC(=O)O[C@]1(C(=O)CO)CC[C@H]2[C@@H]3CCC4=CC(=O)CC[C@]4(C)[C@H]3[C@@H](O)C[C@@]21C | 0 (no) |
| CC(C)(C)CC(C)(C)c1ccc(OCCOCC[N+](C)(C)Cc2ccccc2)cc1 | 1 (yes) |
| O=C(Nc1ccc(Cl)c(Cl)c1)C1CC1 | 0 (no) |
| Cc1nc2n(c(=O)c1CCN1CCC(c3noc4cc(F)ccc34)CC1)CCC[C@H]2O | 0 (no) |
| OCc1ccccc1O | 0 (no) |

Ask: Identify the outcome logged in this assay for the compound shown: `CC(=O)OCC(=O)[C@@]1(OC(C)=O)[C@@H](C)C[C@H]2[C@@H]3C[C@H](F)C4=CC(=O)C=C[C@]4(C)[C@@]3(F)[C@@H](O)C[C@@]21C`
Result: 0 (no)
